assay: NCI Yeast Anticancer Drug Screen. Data for the bub3 strain (AID 167); conditions: S. cerevisiae bub3 mutant strain, at 50.0 µM, active compounds read high
Compounds without any hit were thinned out: in the full panel of roughly 79,000, 15% have a hit. Calls of active or inactive are those of the source. Rule as the data show it: active = growth inhibition above about 70%; inactive = the rest.

compound	growth inhibition
CC(C)c1ccc(/C=N\N(C)C)cc1	-2.9% (inactive)
Cc1cc(C)n(-c2ccc(Cl)nn2)n1	9% (inactive)
CCc1nc(-c2ccccc2)nc2c1nc(-c1cccc(C)c1)n2Nc1ccccc1	-1.6% (inactive)
N#CC(NCCCNC(C#N)c1ccccc1)c1ccccc1 (stereo not given)	-3.9% (inactive)
Cc1ccc(-c2c(N)nc(NC#N)nc2CCC(=O)Nc2ccccc2[N+](=O)[O-])cc1	3.7% (inactive)
O=C(Nc1ccc(C2=NCCN2)c(O)c1)c1ccc(C(=O)Nc2ccc(C3=NCCN3)c(O)c2)cc1	7.5% (inactive)
Nc1nc(SCc2ccc(F)cc2)c2[nH]cnc2n1	12.8% (inactive)
CCCCNC(=O)OCCN=c1c2ccccc2ccc2ccccc12	-1.3% (inactive)
Cc1cc(N(CCC#N)CCC#N)ccc1/C(N=Nc1cccc(Cl)c1)=N/NC(=O)c1cc(Cl)ccc1O	33.6% (inactive)
O=C1c2ccccc2CN1c1ccc(O)cc1	-1.2% (inactive)
Cc1cc(Cl)c2c(C)ccc(C)c2n1	4% (inactive)
Nc1nc(-c2ccccn2)cc(-c2cc(-c3ccccn3)nc(N)n2)n1	-9.75% (inactive)
NNC(=O)Nc1ccccc1	-2.4% (inactive)
CC[N+](C)(CC)CC(O)C[N+]1(C)CC2CCCCC2C1 (stereo not given)	-4.65% (inactive)
O=C(O)CC(NC(=O)c1cnc2ccccc2n1)C(=O)O (stereo not given)	12.7% (inactive)
O=C(Nc1cccc(Cl)c1)c1cc2cc(N=Nc3ccc(Br)cc3)ccc2oc1=O	9.45% (inactive)
NC(=O)Nc1ccc2[nH]c(=O)c3ccccc3c2c1	-7.15% (inactive)
CC(=O)N1Cc2ncnc(N)c2C1	-2.35% (inactive)
CCCNC=O	-5.1% (inactive)
C=C(CBr)CCCOCc1ccccc1	-5.35% (inactive)
CC(C)(O)c1cc2nc3ccccc3nc2n1CCO	4.25% (inactive)
O=[N+]([O-])c1ccc(N/N=C/C2CCCCCC2)c([N+](=O)[O-])c1	-14.7% (inactive)
CCOC(=O)C(=CN1CCCc2ccccc21)C(=O)OCC	5.4% (inactive)
O=C1NC(N2CCCCC2)=N/C1=C\c1ccccc1	-10.5% (inactive)
OCC(O)C(O)C(O)[C@H](O)c1nc2ccccc2[nH]1 (stereo not given in full)	27.4% (inactive)

Entry source: PubChem BioAssay (NCI)
